Target: SGK3 (Homo sapiens)
Sequence (Q96BR1 1-496): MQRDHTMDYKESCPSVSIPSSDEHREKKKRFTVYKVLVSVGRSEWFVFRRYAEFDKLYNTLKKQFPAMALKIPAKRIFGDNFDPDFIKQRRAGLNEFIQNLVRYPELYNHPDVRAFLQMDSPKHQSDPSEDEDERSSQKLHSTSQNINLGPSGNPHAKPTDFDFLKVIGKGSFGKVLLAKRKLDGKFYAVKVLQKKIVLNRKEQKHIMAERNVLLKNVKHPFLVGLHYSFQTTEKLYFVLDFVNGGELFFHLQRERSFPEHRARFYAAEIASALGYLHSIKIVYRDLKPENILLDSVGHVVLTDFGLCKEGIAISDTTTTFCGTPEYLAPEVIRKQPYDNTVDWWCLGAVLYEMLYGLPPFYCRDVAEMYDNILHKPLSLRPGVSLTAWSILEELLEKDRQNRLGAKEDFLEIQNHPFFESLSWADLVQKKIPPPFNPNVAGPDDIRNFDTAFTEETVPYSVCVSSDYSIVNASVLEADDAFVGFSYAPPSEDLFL
Test: IC50 on recombinant SGK3
Type: biochemical
Conditions: Fig 5B / Appendix Fig S1B, recombinant kinase, unit inferred
Experimental: The result for each kinase is presented as a mean kinase activity of the reaction taken in triplicate relative to a control reaction where the inhibitors were omitted. […] SGK3 was immunoprecipitated from cell lysates and subjected to in vitro kinase assay by measuring phosphorylation of the Crosstide substrate peptide in the presence of 0.1 mM [γ‐^32P]ATP in a 30 min 30°C reaction (upper panel). Kinase reactions are presented as means ± SD for triplicate reaction. Appendix Figure S1. […]
Experimental readout: pIC50
Give bare numbers, as −log10 of the molar value.

Recorded pIC50 for Nc1[nH]nc2nc(-c3ccc(NS(=O)(=O)c4cc(Cl)ccc4F)cc3)cnc12 [14n] , please?
7.89

* * *

Biological target: MLK3 (Homo sapiens, UniProt Q16584)
Sequence (Q16584 whole entry, species assumed): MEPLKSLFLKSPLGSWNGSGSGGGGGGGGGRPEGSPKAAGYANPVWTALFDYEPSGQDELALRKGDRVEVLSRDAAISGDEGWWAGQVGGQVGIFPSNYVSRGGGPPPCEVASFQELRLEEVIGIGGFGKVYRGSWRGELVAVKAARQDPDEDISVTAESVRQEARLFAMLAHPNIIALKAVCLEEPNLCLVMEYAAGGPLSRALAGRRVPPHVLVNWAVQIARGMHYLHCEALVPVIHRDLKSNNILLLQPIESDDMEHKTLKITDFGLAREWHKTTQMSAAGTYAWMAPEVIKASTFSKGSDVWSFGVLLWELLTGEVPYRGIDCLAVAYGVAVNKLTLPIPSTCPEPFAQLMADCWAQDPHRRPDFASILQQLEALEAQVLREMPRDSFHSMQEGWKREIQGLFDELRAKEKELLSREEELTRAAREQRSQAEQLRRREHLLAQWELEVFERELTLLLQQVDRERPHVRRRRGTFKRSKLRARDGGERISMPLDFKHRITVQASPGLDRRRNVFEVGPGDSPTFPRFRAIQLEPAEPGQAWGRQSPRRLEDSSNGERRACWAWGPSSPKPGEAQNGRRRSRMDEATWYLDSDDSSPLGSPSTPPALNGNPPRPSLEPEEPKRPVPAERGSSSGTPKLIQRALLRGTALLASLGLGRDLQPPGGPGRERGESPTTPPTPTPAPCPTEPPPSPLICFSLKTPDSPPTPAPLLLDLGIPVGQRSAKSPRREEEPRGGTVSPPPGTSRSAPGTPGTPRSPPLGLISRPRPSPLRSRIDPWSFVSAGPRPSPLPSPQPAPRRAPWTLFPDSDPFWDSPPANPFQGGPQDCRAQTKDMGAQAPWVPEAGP
Assay: IC50 on recombinant MLK3
Conditions: Fig 5B / Appendix Fig S1B, recombinant kinase, unit inferred
For each of the molecules below, state its IC50.
One number for each entry, in nM.

Nc1[nH]nc2nc(-c3ccc(NS(=O)(=O)c4cc(Cl)ccc4F)cc3)cnc12 [14n] :: 94

Recorded IC50 for Nc1n[nH]c2nc(-c3ccc(NS(=O)(=O)c4cc(Cl)ccc4Cl)cc3)cnc12 [14h] , please?
84
